Settings: in isopropanol, 283.15 K
METRIC NAME: solubility (mole fraction)

molecular_string=CCOC(=O)C1(c2ccccc2)CCN(CCC(C#N)(c2ccccc2)c2ccccc2)CC1 measured=0.000155

---

Conditions: in ethanol, 278.15 K
METRIC NAME: solubility (mole fraction)

molecular_string=CCOC(=O)C1(c2ccccc2)CCN(CCC(C#N)(c2ccccc2)c2ccccc2)CC1 measured=0.000882

---

Settings: in methanol, 278.15 K
METRIC NAME: solubility (mole fraction)

molecular_string=CCOC(=O)C1(c2ccccc2)CCN(CCC(C#N)(c2ccccc2)c2ccccc2)CC1 metric_name="solubility (mole fraction)" measured=0.00341

---

Settings: in water, 303.15 K
METRIC NAME: solubility (mole fraction)

molecular_string=CCOC(=O)C1(c2ccccc2)CCN(CCC(C#N)(c2ccccc2)c2ccccc2)CC1 measured=1.48e-05

---

Conditions: in methanol, 288.15 K
METRIC NAME: solubility (mole fraction)

molecular_string=CCOC(=O)C1(c2ccccc2)CCN(CCC(C#N)(c2ccccc2)c2ccccc2)CC1 measured=0.00501
